- measured_target: INDY (Homo sapiens)
- Sequence (Q86YT5 whole entry): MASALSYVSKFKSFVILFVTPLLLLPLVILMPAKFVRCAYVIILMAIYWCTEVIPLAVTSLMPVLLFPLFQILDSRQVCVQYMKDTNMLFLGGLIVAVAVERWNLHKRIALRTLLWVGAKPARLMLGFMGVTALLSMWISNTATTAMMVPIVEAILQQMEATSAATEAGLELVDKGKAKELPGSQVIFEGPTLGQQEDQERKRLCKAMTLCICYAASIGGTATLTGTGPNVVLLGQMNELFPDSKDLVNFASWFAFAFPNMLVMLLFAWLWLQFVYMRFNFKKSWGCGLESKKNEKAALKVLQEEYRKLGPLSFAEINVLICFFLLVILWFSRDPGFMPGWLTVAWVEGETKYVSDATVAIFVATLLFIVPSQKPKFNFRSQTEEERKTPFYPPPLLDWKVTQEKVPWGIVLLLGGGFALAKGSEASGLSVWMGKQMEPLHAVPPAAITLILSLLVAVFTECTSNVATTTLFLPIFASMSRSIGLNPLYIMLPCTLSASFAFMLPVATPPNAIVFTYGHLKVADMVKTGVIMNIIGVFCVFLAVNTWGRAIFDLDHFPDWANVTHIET
- experiment: 14C-citrate uptake in HEK293 cells overexpressing recombinant human INDY (NaCT)
- Assay type: cell-based
- Set-up: expressed in transfected cells; host or cells: HEK293
IC50 values, listed per item
experimental_readout: IC50

- molecule: "CS(=O)(=O)c1ccccc1CNC(=O)C1CCN(S(=O)(=O)/C=C/c2ccccc2)CC1 [Example 18]"
  experimental_value: "> 20 µM"
- molecule: "O=C(NCc1ccccc1F)C1CCN(S(=O)(=O)c2ccc(C(F)(F)F)cc2)CC1 [Example 25]"
  experimental_value: "> 20 µM"
- molecule: "O=C(NCc1ccccc1F)C1CCN(S(=O)(=O)c2cccc(Cl)c2)CC1 [Example 59]"
  experimental_value: "1.1 µM"
- molecule: "O=C(NCc1ccccc1F)C1CCN(S(=O)(=O)c2cc(Cl)cc(Cl)c2)CC1 [Example 44]"
  experimental_value: "0.1 µM"
- molecule: "O=C(NCc1ccccc1F)C1CCN(S(=O)(=O)c2ccc(F)cc2)CC1 [Example 45]"
  experimental_value: "11.8 µM"
- molecule: "O=C(NCc1ccccc1)C1CCN(S(=O)(=O)c2cc(Cl)cc(Cl)c2)CC1 [Example 103]"
  experimental_value: "0.1 µM"
- molecule: "O=C(NCc1ccccn1)C1CCN(S(=O)(=O)c2cc(Cl)ccc2Cl)CC1 [Example 62]"
  experimental_value: "8.2 µM"
- molecule: "O=C(NCc1ccccn1)C1CCN(S(=O)(=O)c2ccc(C(F)(F)F)cc2Cl)CC1 [Example 74]"
  experimental_value: "7.1 µM"
- molecule: "O=C(NCc1ccccn1)C1CCN(S(=O)(=O)c2cc(Cl)cc(C3COC3)c2)CC1 [Example 116]"
  experimental_value: "5.9 µM"
- molecule: "O=C(NCc1ccccc1CO)C1CCN(S(=O)(=O)/C=C/c2ccccc2)CC1 [Example 69]"
  experimental_value: "11.7 µM"
- molecule: "CC(=O)c1cccc(S(=O)(=O)N2CCC(C(=O)NCc3ccccc3F)CC2)c1 [Example 106]"
  experimental_value: "11.1 µM"
- molecule: "CN(Cc1ccccn1)C(=O)C1CCN(S(=O)(=O)c2cc(Cl)cc(Cl)c2)CC1 [Example 128]"
  experimental_value: "> 20 µM"
- molecule: "Cc1ccccc1CNC(=O)C1CCN(S(=O)(=O)/C=C/c2ccccc2)CC1 [Example 31]"
  experimental_value: "15.2 µM"
- molecule: "O=C(NCc1ccccn1)C1CCN(S(=O)(=O)c2ccc(-c3ccccc3)cc2)CC1 [Example 68]"
  experimental_value: "19.7 µM"
- molecule: "O=C(NCc1ccccn1)C1CCN(S(=O)(=O)c2ccc(S(F)(F)(F)(F)F)cc2)CC1 [Example 86]"
  experimental_value: "1.1 µM"
- molecule: "Cc1ccc(S(=O)(=O)N2CCC(C(=O)NCc3ccccc3F)CC2)cc1 [Example 35]"
  experimental_value: "1.5 µM"
- molecule: "O=C(NCc1ccccc1F)C1CCN(S(=O)(=O)c2ccc([N+](=O)[O-])cc2)CC1 [Example 17]"
  experimental_value: "> 20 µM"
